Test: in vivo
Conditions: mouse, iv, 1 mg/kg, Tmax, mice, I.V. 1 mg/kg, Lung

[
  {
    "smilesStr": "CC[C@H]1CN2CCc3cc(OC)c(OC)cc3[C@@H]2C[C@@H]1C[C@H]1NCCc2cc(OC)c(OC)cc21",
    "Tmax / min": 1.8
  }
]

---

Test: In vivo plasma pharmacokinetics in rats
Set-up: species or system Sprague-Dawley rats
Conditions: Sprague-Dawley, iv, Rat, I.V. 1 mg/kg

[
  {
    "smilesStr": "CC[C@H]1CN2CCc3cc(OC)c(OC)cc3[C@@H]2C[C@@H]1C[C@H]1NCCc2cc(OC)c(OC)cc21",
    "Cmax / ng/mL": 26.9
  }
]

---

Test: in vivo
Conditions: Sprague-Dawley, rat, lung, po, 1 mg/kg

[
  {
    "compound": "CC[C@H]1CN2CCc3cc(OC)c(OC)cc3[C@@H]2C[C@@H]1C[C@H]1NCCc2cc(OC)c(OC)cc21 [Emetine]",
    "concentration at 72 h, nM": 360
  }
]

---

Test: In vivo plasma pharmacokinetics in beagle dogs
Settings: beagle, iv, Dog, I.V. 1 mg/kg

[
  {
    "smilesStr": "CC[C@H]1CN2CCc3cc(OC)c(OC)cc3[C@@H]2C[C@@H]1C[C@H]1NCCc2cc(OC)c(OC)cc21",
    "valueUnits": "mL/min/kg",
    "clearance": 45.8
  }
]

---

Assay: In vivo plasma pharmacokinetics in rats
Parameters: species or system Sprague-Dawley rats
Conditions: Sprague-Dawley, iv, Rat, I.V. 1 mg/kg

[
  {
    "smilesStr": "CC[C@H]1CN2CCc3cc(OC)c(OC)cc3[C@@H]2C[C@@H]1C[C@H]1NCCc2cc(OC)c(OC)cc21",
    "clearance": "445 mL/min/kg"
  }
]

---

Test: in vivo
Conditions: mouse, iv, 1 mg/kg, MRT0-∞, mice, I.V. 1 mg/kg, Liver
observable: MRT inf (h)

[
  {
    "smilesStr": "CC[C@H]1CN2CCc3cc(OC)c(OC)cc3[C@@H]2C[C@@H]1C[C@H]1NCCc2cc(OC)c(OC)cc21",
    "observable": "MRT inf",
    "testValue": 28
  }
]

---

Experiment: in vivo
Details: Sprague-Dawley, rat, lung, po, 1 mg/kg/day
observable: concentration at 1 h

[
  {
    "compound": "CC[C@H]1CN2CCc3cc(OC)c(OC)cc3[C@@H]2C[C@@H]1C[C@H]1NCCc2cc(OC)c(OC)cc21 [Emetine]",
    "observable": "concentration at 1 h",
    "testValue": "5 to 6 µM"
  }
]

---

Experiment: in vivo
Conditions: mouse, iv, 1 mg/kg, Tmax, mice, I.V. 1 mg/kg, Liver
observable: Tmax (h)

[
  {
    "smilesStr": "CC[C@H]1CN2CCc3cc(OC)c(OC)cc3[C@@H]2C[C@@H]1C[C@H]1NCCc2cc(OC)c(OC)cc21",
    "valueUnits": "h",
    "testValue": 9
  }
]

---

Assay: In vivo plasma pharmacokinetics in rats
Set-up: species or system Sprague-Dawley rats
Settings: Sprague-Dawley, iv, Rat, I.V. 1 mg/kg

[
  {
    "compound": "CC[C@H]1CN2CCc3cc(OC)c(OC)cc3[C@@H]2C[C@@H]1C[C@H]1NCCc2cc(OC)c(OC)cc21 [Emetine]",
    "AUC(0-t) [ng·h/mL]": 29.8
  }
]

From: paper PMC7700809
